- Tgt: MNK1/2
- Construct: rows headed: enzymatic IC50
- Protocol: radiometric kinase assay (33PanQinase Activity Assay), IC50
- Reported conditions: MNK1/2, isoform not stated; read-out: enzymatic IC50
Metric: IC50
# number then unit; no other words

Item Nc1n[nH]c2nc(-c3ccccc3)cc(-c3ccccc3)c12 [EB1] : provide IC50
700 nM

Taken from patent US20220257571A1.
